- Test system: L1210 leukemia ip in BDF1 mice, survival T/C
- test-summary: NCI In Vivo Anticancer Drug Screen. Data for tumor model L1210 Leukemia (intraperitoneal) in B6D2F1 (BDF1) mice
- assay-setup: endpoint: mean survival time; dose: 200.0 mg/kg/injection; schedule: Q04DX003 (ip); vehicle: saline with Tween-80; higher = longer survival
Toxic doses and inconclusive results are not listed.
Measured T/C values are reported for all entries that follow.

compound: C/C(=N\N=C(/C)c1ccc2ccccc2c1)c1ccc2ccccc2c1
T/C: 91 % of control
--
compound: Clc1[nH]cnc1Br
T/C: 93 % of control
--
compound: Cc1c2ccccc2cc2[n+]1CCc1ccccc1-2
T/C: 107 % of control
--
compound: CC(C)(C)NCCCC(=O)O
T/C: 100 % of control
--
compound: Cc1c[n+]([O-])cc(C)c1N=Nc1ccc(N(C)C)cc1
T/C: 96 % of control
--
compound: O=C(c1ccccc1[N+](=O)[O-])C(Br)C(Br)c1cccc2ccccc12 (stereo not drawn)
T/C: 91 % of control
--
compound: Cc1cnc2c(N)nn(-c3ccccc3)c2n1
T/C: 97 % of control
--
compound: COc1cc2c(c3ccccc13)CCCC2=O
T/C: 93 % of control
--
compound: ClC(Cl)(Cl)c1ccc(C(SCc2ccccc2)SCc2ccccc2)cc1
T/C: 89 % of control
--
compound: O=C(Nc1ccc2c(c1)OCO2)O/N=C\c1ccccn1
T/C: 101 % of control
--
compound: CCC(C)C1CC1(Br)Br (stereo not drawn)
T/C: 100 % of control
--
compound: N#Cc1ccc(Cc2ccc(C#N)cc2)cc1
T/C: 101 % of control
--
compound: COC(=O)NC1CCCCC1I (stereo not drawn)
T/C: 98 % of control

Hello, the source for this data is PubChem BioAssay AID248, in case you need it.
